# test-system: T1, human pancreatic α-amylase (human, UniProt P04746)
# T1 sequence: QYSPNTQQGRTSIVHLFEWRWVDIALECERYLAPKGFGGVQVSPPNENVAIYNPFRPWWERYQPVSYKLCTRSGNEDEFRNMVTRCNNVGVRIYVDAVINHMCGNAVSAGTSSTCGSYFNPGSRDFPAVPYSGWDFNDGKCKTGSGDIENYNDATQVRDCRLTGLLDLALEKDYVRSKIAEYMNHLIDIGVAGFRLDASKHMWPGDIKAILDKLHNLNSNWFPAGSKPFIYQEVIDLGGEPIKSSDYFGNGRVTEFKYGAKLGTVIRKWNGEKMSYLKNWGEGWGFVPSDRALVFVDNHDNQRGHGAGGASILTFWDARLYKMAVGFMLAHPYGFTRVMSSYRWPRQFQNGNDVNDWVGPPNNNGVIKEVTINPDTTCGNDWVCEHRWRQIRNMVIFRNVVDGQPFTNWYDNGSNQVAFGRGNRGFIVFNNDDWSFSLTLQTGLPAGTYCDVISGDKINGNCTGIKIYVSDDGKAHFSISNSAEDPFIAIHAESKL
# experiment-notes: cell-based or functional assay
metric: Amylase inhibitory activity (U/mg)

binder	meas-value
Protein 0.28 AI (other) SGPWSWCNPATGYKVSALTGCRAMVKLQCVGSQVPEAVLRDCCQQLADINNEWCRCGDLSSMLRAVYQELGVREGKEVLPGCRKEVMKLTAASVPEVCKVPIPNPSGDRAGVCYGDWCAYPDV	840
Protein 0.26 AI (other) SGPWMCYPGYAFKVPALPGCRPVLKLQCNGSQVPEAVLRDCCQQLADISEWCRCGALYSMLDSMYKEHGVQEGQAGTGAFPSCRREVVKLTAASITAVCKLPIVIDASGDGAYVCKGVAAYPDA	26100
Protein (A) (other) SGPWMCYPGYAFKVPALPGCRPVLKLQCNGSQVPEAVLRDCCQQLADISEWCRCGALYSMLDSMYKEHGVQEGQAGTGAFPSCRREVVKLTAASITAVCKLPIVIDASGDGAYVCKGVAAYP	20500

[P] Protein 0.19 AI (other) SGPWMCYPGQAFQVPALPACRPLLRLQCNGSQVPEAVLRDCCQQLAHISEWCRCGALYSMLDSMYKEHGAQEGQAGTGAFPRCRREVVKLTAASITAVCRLPIVVDASGDGAYVCKDVAAYPDA
[Q] Protein 0.53 AI (other) SGPWMCYPGQAFQVPALPGCRPLLKLQCNGSQVPEAVLRDCCQQLADISEWPRCGALYSMLDSMYKEHGVSEGQAGTGAFPSCRREVVKLTAASITAVCRLPIVVDASGDGAYVCKDVAAYPDA
Quick check, higher Amylase inhibitory activity (U/mg) between P and Q ? Could you answer with the label of the item you picked?
P
(P: 20300 U/mg, Q: 3940 U/mg)
